- TEST DESCRIPTION: Pharmacokinetic study of oral and intravenous administration in rats
- Type: in vivo, rat
- APPLIED CONDITIONS: rat, plasma, 3 mg/kg; male SD rats, intravenous, 3 mpk; read-out: Apparent volume of distribution Vdss
OBSERVED PROPERTY: Vd (L/kg)
Give the value in L/kg but do not write L/kg after it.

Query: State the recorded Vd for this entry: Cc1cc(NC(=O)c2noc(=O)[nH]2)cc(C)c1Cc1ccc(O)c2c1CCCC2
Response: 0.411

====

- TGT: CYP2C19 (Homo sapiens (Human), UniProt P33261)
- Sequence (P33261 whole entry): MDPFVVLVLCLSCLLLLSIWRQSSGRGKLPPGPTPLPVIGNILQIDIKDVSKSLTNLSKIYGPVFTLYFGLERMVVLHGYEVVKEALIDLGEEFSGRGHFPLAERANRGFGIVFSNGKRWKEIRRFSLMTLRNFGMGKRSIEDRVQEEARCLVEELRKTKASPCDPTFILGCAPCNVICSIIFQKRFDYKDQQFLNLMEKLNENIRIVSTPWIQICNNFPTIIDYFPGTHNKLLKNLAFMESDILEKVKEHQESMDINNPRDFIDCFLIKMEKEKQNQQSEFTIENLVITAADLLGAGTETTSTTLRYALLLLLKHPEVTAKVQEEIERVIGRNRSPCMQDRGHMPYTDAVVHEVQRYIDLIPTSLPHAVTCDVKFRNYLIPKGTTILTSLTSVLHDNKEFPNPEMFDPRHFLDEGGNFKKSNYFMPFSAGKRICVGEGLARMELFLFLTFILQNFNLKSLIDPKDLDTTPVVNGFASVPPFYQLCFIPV
- TEST DESCRIPTION: Inhibition of human liver microsomal cytochrome P450 isoenzyme CYP2C19
- Format: in vitro ADME
- APPLIED CONDITIONS: human liver microsomes
OBSERVED PROPERTY: IC50 (µM)
Please state the figure in µM; there is no need to write the unit.

Query: Query IC50 on CYP2C19 (Homo sapiens (Human), UniProt P33261) for Cc1cc(NC(=O)c2noc(=O)[nH]2)cc(C)c1Cc1ccc(O)c2c1CCCC2 [WX001]
Response: 5.09
